molecular target: recombinant human ALK enzyme (ALK WT) (Homo sapiens); construct: purchased Carna Biosciences 08-518; assay: ALK WT cell free enzymatic assay (TR-FRET); type: biochemical; conditions: compound at 1 μM; 30 min pre-incubation; 1 μM ATP
Where a name gives a salt, the structure may show the parent alone.

MOLECULE: CS(=O)(=O)Nc1cc(-c2cnc3[nH]cc(-c4cnn(Cc5cccc(F)c5)c4)c3c2)ccc1N1CCN(CC(N)=O)CC1
inhibition at 1 µM [%]: 98
--
MOLECULE: COc1ccc(-c2cnc3[nH]cc(-c4cnn(CCc5ccc(F)cc5)c4)c3c2)cc1NS(C)(=O)=O
inhibition at 1 µM [%]: 94
--
MOLECULE: CN1CCN(c2ccc(-c3cnc4[nH]cc(-c5cnn(CCc6ccccc6)c5)c4c3)cn2)CC1
inhibition at 1 µM [%]: 96
--
MOLECULE: Cc1nn(Cc2cccc(F)c2)c(C)c1-c1c[nH]c2nc(C3CC3)c(-c3ccc(N4CCNCC4)cc3)cc12 [Example 55, hydrochloride]
inhibition at 1 µM [%]: 43
--
MOLECULE: Cc1nn(Cc2cccc(F)c2)c(C)c1-c1c[nH]c2ncc(-c3ccc(C4CCNCC4)c(F)c3)cc12
inhibition at 1 µM [%]: 100
--
MOLECULE: Cc1nn(Cc2cccc(F)c2)c(C)c1-c1c[nH]c2ncc(-c3cccc(N4CCNCC4)c3)cc12
inhibition at 1 µM [%]: 99
--
MOLECULE: Cc1nn(Cc2cccc(F)c2)c(C)c1-c1c[nH]c2ncc(-c3ccc(OCCCO)c(NS(C)(=O)=O)c3)cc12
inhibition at 1 µM [%]: 93

---

biological target: recombinant human ALK enzyme (ALK WT) (Homo sapiens, UniProt Q9UM73); construct: purchased Carna Biosciences 08-518; test: ALK WT cell free enzymatic assay (TR-FRET); format: biochemical; conditions: compound at 1 μM; 30 min pre-incubation; 1 μM ATP
Sequence (Q9UM73 1058-1620 limits assumed): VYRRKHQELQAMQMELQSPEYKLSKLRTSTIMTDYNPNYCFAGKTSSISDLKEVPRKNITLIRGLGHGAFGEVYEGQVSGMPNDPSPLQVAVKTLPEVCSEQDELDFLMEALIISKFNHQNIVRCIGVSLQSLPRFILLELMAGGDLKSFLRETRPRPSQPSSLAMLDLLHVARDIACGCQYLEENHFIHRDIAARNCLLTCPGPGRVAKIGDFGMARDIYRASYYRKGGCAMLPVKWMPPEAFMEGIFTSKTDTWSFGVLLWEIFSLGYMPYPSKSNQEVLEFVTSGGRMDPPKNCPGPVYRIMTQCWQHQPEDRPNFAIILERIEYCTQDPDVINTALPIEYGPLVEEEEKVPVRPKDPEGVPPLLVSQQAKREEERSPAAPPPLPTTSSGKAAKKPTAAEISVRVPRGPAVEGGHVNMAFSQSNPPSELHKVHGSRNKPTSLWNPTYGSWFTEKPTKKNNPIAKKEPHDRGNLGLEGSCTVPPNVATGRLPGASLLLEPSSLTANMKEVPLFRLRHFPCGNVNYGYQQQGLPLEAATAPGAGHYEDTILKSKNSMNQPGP
Counter-ions that a name gives are not always drawn.

COMPOUND: COc1ccc(-c2cnc3[nH]cc(-c4ccn(Cc5cc(F)cc(F)c5)n4)c3c2)cc1NS(C)(=O)=O [Example 69]
inhibition at 1 µM [%]: 76

COMPOUND: Cc1nn(Cc2cccc(F)c2)cc1-c1c[nH]c2ncc(-c3ccc(C4CCNCC4)c(F)c3)cc12 [Example 166]
inhibition at 1 µM [%]: 98

COMPOUND: c1ccc(CCn2cc(-c3c[nH]c4ncc(-c5cccc(NC6CCNCC6)c5)cc34)cn2)cc1 [Example 95]
inhibition at 1 µM [%]: 99

COMPOUND: Fc1cccc(Cn2cc(-c3c[nH]c4ncc(-c5cccc(N6CCNCC6)c5)cc34)cn2)c1 [Example 33, hydrochloride]
inhibition at 1 µM [%]: 100

COMPOUND: CS(=O)(=O)Nc1cc(-c2cnc3[nH]cc(-c4cnn(Cc5cccc(F)c5)c4)c3c2)ccc1N1CCOCC1 [Example 17]
inhibition at 1 µM [%]: 53

COMPOUND: COc1ncc(-c2cnc3[nH]cc(-c4cnn(Cc5cccc(F)c5)c4)c3c2)cc1N [Example 65]
inhibition at 1 µM [%]: 100

COMPOUND: CCS(=O)(=O)Nc1cc(-c2cnc3[nH]cc(-c4c(C)nn(Cc5cccc(F)c5)c4C)c3c2)ccc1OC [Example 15]
inhibition at 1 µM [%]: 75

COMPOUND: Fc1cc(-c2cnc3[nH]cc(-c4cnn(CCc5ccccc5)c4)c3c2)ccc1C1CCNCC1 [Example 167]
inhibition at 1 µM [%]: 97

COMPOUND: COc1ncc(-c2cnc3[nH]cc(-c4cnn(Cc5cccc(F)c5)c4)c3c2)cc1NS(C)(=O)=O [Example 67]
inhibition at 1 µM [%]: 100

COMPOUND: C[C@H](O)CN1CCN(c2ccc(-c3cnc4[nH]cc(-c5cnn(Cc6ccccc6)c5)c4c3)cc2)CC1 [Example 118]
inhibition at 1 µM [%]: 98

COMPOUND: Cc1nn(Cc2cccc(F)c2)c(C)c1-c1c[nH]c2ncc(-c3ccc(N4CCN(C[C@H](C)O)CC4)cc3)cc12 [Example 123]
inhibition at 1 µM [%]: 96

COMPOUND: C[C@H](O)CN1CCN(c2ccc(-c3cnc4[nH]cc(-c5cnn(Cc6cc(F)cc(F)c6)c5)c4c3)cn2)CC1 [Example 135]
inhibition at 1 µM [%]: 100

COMPOUND: Cc1nn(Cc2cccc(F)c2)c(C)c1-c1c[nH]c2ncc(-c3ccc(N4CCOCC4)c(NS(C)(=O)=O)c3)cc12 [Example 59]
inhibition at 1 µM [%]: 77

COMPOUND: COc1ccc(-c2cnc3[nH]cc(-c4cnn(CCc5ccccc5)c4)c3c2)cc1NS(C)(=O)=O [Example 64]
inhibition at 1 µM [%]: 82

COMPOUND: COc1ccc(-c2cnc3[nH]cc(-c4cnn(CCc5cccc(F)c5)c4)c3c2)cc1NS(C)(=O)=O [Example 75]
inhibition at 1 µM [%]: 100

---

biological target: recombinant human ALK enzyme (ALK WT) (Homo sapiens, UniProt Q9UM73); construct: purchased Carna Biosciences 08-518; test: ALK WT cell free enzymatic assay (TR-FRET); format: biochemical; conditions: 10 point dose response; 1 μM ATP
Quick reference: IC50 of the listed items.

COMPOUND STRUCTURE: CNS(=O)(=O)c1cc(-c2cnc3[nH]cc(-c4c(C)nn(Cc5cc(F)ccc5F)c4C)c3c2)ccc1OC
IC50: > 250 nM
--
COMPOUND STRUCTURE: CN1CCC(c2ccc(-c3cnc4[nH]cc(-c5cnn(Cc6cccc(F)c6)c5)c4c3)cc2)CC1
IC50: < 50 nM
--
COMPOUND STRUCTURE: C[C@H](O)CN1CCN(c2ccc(-c3cnc4[nH]cc(-c5cnn(Cc6cccc(Cl)c6)c5)c4c3)cn2)CC1
IC50: < 50 nM
--
COMPOUND STRUCTURE: COc1ccc(-c2cnc3[nH]cc(-c4cnn(Cc5cc(F)ccc5F)c4)c3c2)cc1NS(C)(=O)=O
IC50: < 50 nM

---

target: recombinant human ALK enzyme (ALK WT) (Homo sapiens, UniProt Q9UM73); construct: purchased Carna Biosciences 08-518; experiment: ALK WT cell free enzymatic assay (TR-FRET); format: biochemical; settings: compound at 1 μM; 30 min pre-incubation; 1 μM ATP
Quick reference: inhibition at 1 µM of the listed items.

COMPOUND STRUCTURE: C[C@H](O)CN1CCN(c2ccc(-c3cnc4[nH]cc(-c5cnn(Cc6cccc(F)c6)c5)c4c3)cc2F)CC1
MEASURED ON: recombinant human ALK enzyme (ALK WT) (Homo sapiens, UniProt Q9UM73)
inhibition at 1 µM, %: 99
--
COMPOUND STRUCTURE: c1ccc(CCn2cc(-c3c[nH]c4ncc(-c5ccc(C6CCNCC6)cc5)cc34)cn2)cc1
MEASURED ON: recombinant human ALK enzyme (ALK WT) (Homo sapiens, UniProt Q9UM73)
inhibition at 1 µM, %: 99
--
COMPOUND STRUCTURE: O=C(CC1CC1)N1CCN(c2ccc(-c3cnc4[nH]cc(-c5cnn(Cc6cccc(F)c6)c5)c4c3)cn2)CC1
MEASURED ON: recombinant human ALK enzyme (ALK WT) (Homo sapiens, UniProt Q9UM73)
inhibition at 1 µM, %: 84
--
COMPOUND STRUCTURE: COc1ccc(-c2cnc3[nH]cc(-c4cnn(Cc5cccnc5)c4)c3c2)cc1NS(C)(=O)=O
MEASURED ON: recombinant human ALK enzyme (ALK WT) (Homo sapiens, UniProt Q9UM73)
inhibition at 1 µM, %: 100

---

molecular target: recombinant human ALK enzyme (ALK WT) (Homo sapiens, UniProt Q9UM73); construct: purchased Carna Biosciences 08-518; assay: ALK WT cell free enzymatic assay (TR-FRET); assay type: biochemical; settings: 10 point dose response; 1 μM ATP
Counter-ions that a name gives are not always drawn.
Quick reference: IC50 of the listed items.
EXPERIMENTAL ENDPOINT: IC50

MOLECULE: Cc1nn(Cc2cccc(F)c2)c(C)c1-c1c[nH]c2ncc(-c3ccc(N4CCNCC4)c(NS(C)(=O)=O)c3)cc12 [Example 58, hydrochloride]
EXPERIMENTAL ENDPOINT: IC50
READING: < 50 nM
//
MOLECULE: Fc1cc(-c2cnc3[nH]cc(-c4ccn(CCc5ccccc5)n4)c3c2)ccc1C1CCNCC1 [Example 168]
EXPERIMENTAL ENDPOINT: IC50
READING: > 250 nM
//
MOLECULE: Fc1cc(-c2cnc3[nH]cc(-c4cnn(CCc5ccccc5)c4)c3c2)ccc1C1CCNCC1 [Example 167]
EXPERIMENTAL ENDPOINT: IC50
READING: 50 to 250 nM
//
MOLECULE: c1ccc(CCn2cc(-c3c[nH]c4ncc(-c5ccc(N6CCNCC6)nc5)cc34)cn2)cc1 [Example 140]
EXPERIMENTAL ENDPOINT: IC50
READING: < 50 nM
//
MOLECULE: Cc1nn(Cc2cccc(F)c2)c(C)c1-c1c[nH]c2ncc(-c3ccc(N4CCOCC4)c(NS(C)(=O)=O)c3)cc12 [Example 59]
EXPERIMENTAL ENDPOINT: IC50
READING: 50 to 250 nM
//
MOLECULE: COc1ccc(Cn2cc(-c3c[nH]c4ncc(-c5cccc(NS(C)(=O)=O)c5)cc34)cn2)cc1 [Example 3]
EXPERIMENTAL ENDPOINT: IC50
READING: > 250 nM
//
MOLECULE: Cc1nn(Cc2cccc(F)c2)c(C)c1-c1c[nH]c2ncc(-c3ccc(C4CCNCC4)c(F)c3)cc12 [Example 175]
EXPERIMENTAL ENDPOINT: IC50
READING: < 50 nM
